B1: MNAT1 (parent)
chain: LEEALYEYQPLQIETYGPHVPELE

Variants of: B1
test-method-notes: protein stability index of a GFP-peptide fusion (GPS, HEK-293T) (PSI 1-6); higher = more stable;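 further: lentivirally expressed fusions sorted by FACS into six bins by GFP to DsRed ratio, PSI derived from sequencing read proportions per bin multiplied by bin number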
experimental-parameters: c terminus: a fixed tail appended
Each record here notes measured protein stability index.
Give the figure by itself; no unit, no explanation.

[
  {
    "mutation-name": "Q9P",
    "protein stability index": 5.02
  },
  {
    "mutation-name": "G17S",
    "protein stability index": 2.27
  },
  {
    "mutation-name": "E14W",
    "protein stability index": 1.6
  }
]

// query Look up protein stability index: `A4Q`
// result 4.89

// query Look up protein stability index: `E3Y`
// result 2.04

// query Look up protein stability index: `Y16R`
// result 3.19

// query Look up protein stability index: `Y8F`
// result 3.75

// query Look up protein stability index: `P18Q`
// result 3.3

// query Look up protein stability index: `Y8V`
// result 4.98

// query Look up protein stability index: `A4W`
// result 2.96

// query Look up protein stability index: `P18R`
// result 3.78

// query Look up protein stability index: `T15M`
// result 2.32

// query Look up protein stability index: `L23P`
// result 3.19

// query Look up protein stability index: `L5V`
// result 4.64

// query Look up protein stability index: `Q12S`
// result 2.21

// query Look up protein stability index: `E22A`
// result 2.47

// query Look up protein stability index: `L5C`
// result 4.71

These entries and their values trace back to the supplement of paper PMC10567573.
